Biological target: C-X-C chemokine receptor type 4 (Homo sapiens)
Experiment: Displacement of biotinylated-TN14003 from CXCR4 in human MDA-MB-231 cells assessed as reduction in fluorescence preincubated for 10 mins followed by biotinylated-TN14003 addition measured after 30 mins by streptavidin-rhodamine staining based microscopic analysis
Assay type: cell-based
attributeMeasured: EC (nM)

Answered cases to consult:
O=C(NCc1ccc(CNS(=O)(=O)c2ccc3c(c2)CCO3)cc1)c1scc2c1OCCO2 :: 10
O=C(NCc1ccc(CNS(=O)(=O)c2ccc3c(c2)CCO3)cc1)c1cccc2c1COC2 :: 1000
O=C(NCc1ccc(CNS(=O)(=O)c2ccc3c(c2)CCO3)cc1)c1cccnc1 :: 1000
O=C(NCc1ccc(CNS(=O)(=O)c2ccccc2F)cc1)c1cc2ccccn2n1 :: 100
Cc1cc(C(=O)NCc2ccc(CNS(=O)(=O)c3ccc4c(c3)CCO4)cc2)n(C)n1 :: 1000
O=C(NCc1ccc(CNS(=O)(=O)c2cccc(F)c2)cc1)c1cc2ccccn2n1 :: 1000
O=C(NCc1ccc(CNS(=O)(=O)c2ccc(F)cc2F)cc1)c1cncnc1 :: 1
Cn1nccc1C(=O)NCc1ccc(CNS(=O)(=O)c2ccc3c(c2)CCO3)cc1 :: 1000

A = O=C(NCc1ccc(CNS(=O)(=O)c2ccc3c(c2)CCO3)cc1)c1cc2ccccn2n1
B = Cc1nnsc1C(=O)NCc1ccc(CNS(=O)(=O)c2ccc(F)c(F)c2)cc1
Lookup: Two entries are listed, A and B . Which one carries the higher EC? Reply briefly: the label of your chosen item.
Found: B
(B: 10 nM, A: 1 nM)

###

Entries and their measured inhibition follow.
Molecular target: C-X-C chemokine receptor type 4 (Homo sapiens)
Experiment: Inhibition of CXCR4/CXCL12 interaction-mediated chemotaxis in human MDA-MB-231 cells assessed as inhibition of cell invasion at 100 nM after 22 hrs by hematoxylin/eosin dye-based matrigel assay relative to control
Numeric only. Scale: %

Cc1nnsc1C(=O)NCc1ccc(CNS(=O)(=O)c2ccc(F)c(F)c2)cc1 :: 40

inhibition recorded for this compound, O=C(NCc1ccc(CNS(=O)(=O)c2ccc3c(c2)CCO3)cc1)c1cccc2c1COC2 , is 40

inhibition recorded for this compound, O=C(NCc1ccc(CNS(=O)(=O)c2ccc3c(c2)CCO3)cc1)c1cccnc1 , is 60

inhibition recorded for this compound, O=C(NCc1ccc(CNS(=O)(=O)c2ccc3c(c2)CCO3)cc1)c1cc2ccccn2n1 , is 40

inhibition recorded for this compound, Cn1nccc1C(=O)NCc1ccc(CNS(=O)(=O)c2ccc3c(c2)CCO3)cc1 , is 40

###

Biological target: C-X-C chemokine receptor type 4 (Homo sapiens) (UniProt P61073)
Sequence (P61073 whole entry): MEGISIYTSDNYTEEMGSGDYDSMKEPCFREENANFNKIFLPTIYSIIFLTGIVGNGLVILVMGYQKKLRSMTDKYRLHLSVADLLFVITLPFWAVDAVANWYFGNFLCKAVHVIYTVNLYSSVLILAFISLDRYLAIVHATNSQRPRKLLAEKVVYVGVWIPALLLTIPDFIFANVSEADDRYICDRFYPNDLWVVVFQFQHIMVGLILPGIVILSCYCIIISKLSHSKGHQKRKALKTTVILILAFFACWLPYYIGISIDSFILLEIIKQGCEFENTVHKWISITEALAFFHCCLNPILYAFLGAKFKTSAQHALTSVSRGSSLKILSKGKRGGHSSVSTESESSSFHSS
Assay: Inhibition of CXCR4/CXCL12 interaction-mediated chemotaxis in human MDA-MB-231 cells assessed as inhibition of cell invasion at 100 nM after 22 hrs by hematoxylin/eosin dye-based matrigel assay relative to control
attributeMeasured: inhibition

Answered cases to consult:
O=C(NCc1ccc(CNS(=O)(=O)c2ccc3c(c2)CCO3)cc1)c1scc2c1OCCO2 :: 68%
O=C(NCc1ccc(CNS(=O)(=O)c2cccc(F)c2)cc1)c1cc2ccccn2n1 :: 40%
c1cc(CN2CCCNCCNCCCNCC2)ccc1CN1CCCNCCNCCCNCC1 :: 55%
O=C(NCc1ccc(CNS(=O)(=O)c2ccc(F)cc2F)cc1)c1cncnc1 :: 74%

Reported inhibition (C-X-C chemokine receptor type 4 (Homo sapiens) (UniProt P61073)) for entry O=C(NCc1ccc(CNS(=O)(=O)c2ccccc2F)cc1)c1cc2ccccn2n1 is 40%
